Each recorded value in this set is attributed to patent US20120214847A1.

Reported values of EC50 for individual entries
- test.system: human GR (Homo sapiens, UniProt P04150)
- Construct: naturally expresses the human GR; endogenous in cells
- Sequence (P04150 whole entry): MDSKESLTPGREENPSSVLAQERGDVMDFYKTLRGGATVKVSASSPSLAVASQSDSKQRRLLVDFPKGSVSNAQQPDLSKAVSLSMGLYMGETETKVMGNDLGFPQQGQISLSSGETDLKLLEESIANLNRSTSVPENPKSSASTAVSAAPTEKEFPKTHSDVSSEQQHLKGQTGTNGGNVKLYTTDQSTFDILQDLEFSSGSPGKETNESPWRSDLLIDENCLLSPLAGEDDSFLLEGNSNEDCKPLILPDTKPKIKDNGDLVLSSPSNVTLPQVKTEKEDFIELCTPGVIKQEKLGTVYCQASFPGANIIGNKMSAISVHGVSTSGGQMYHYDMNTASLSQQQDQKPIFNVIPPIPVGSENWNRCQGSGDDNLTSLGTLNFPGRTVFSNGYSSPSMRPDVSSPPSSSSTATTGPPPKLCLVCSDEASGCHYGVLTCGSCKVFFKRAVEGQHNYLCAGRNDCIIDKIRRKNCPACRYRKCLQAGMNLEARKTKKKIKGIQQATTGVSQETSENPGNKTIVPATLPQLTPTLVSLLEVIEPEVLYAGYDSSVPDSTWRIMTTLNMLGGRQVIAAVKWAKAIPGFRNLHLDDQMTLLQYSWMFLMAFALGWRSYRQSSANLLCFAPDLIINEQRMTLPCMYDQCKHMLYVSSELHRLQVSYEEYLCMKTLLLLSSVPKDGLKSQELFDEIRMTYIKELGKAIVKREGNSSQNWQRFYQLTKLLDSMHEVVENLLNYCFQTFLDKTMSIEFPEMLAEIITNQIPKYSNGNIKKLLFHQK
- assay.text: Transrepression assay (GITAR), TNFα-β-lactamase reporter in U937 cells
- Assay type: cell-based
- run.parameters: U937 cells; IP = inflection point
readout.name: EC50 (nM)

>>> print(df.to_string())
                                    compound  obs_value
 0  CC[C@]12Cc3cnn(-c4ccc(F)cc4)c3C=C1CC[C@@]2(O)CC(O)c1c(F)ccnc1Cl (stereo partly drawn)        103
 1  N#Cc1cccnc1CC[C@]1(O)CCC2=Cc3c(cnn3-c3ccc(F)cc3)C[C@@]21C1CC1         13
 2  CC[C@]12Cc3cnn(-c4ccc(F)cc4)c3C=C1CC[C@@]2(O)CC(O)c1cncc(F)c1 (stereo partly drawn)        198
 3  CC[C@]12Cc3cnn(-c4ccc(F)cc4)c3C=C1CC[C@@]2(O)CCc1cncc(F)c1         95
 4  OC(C[C@]1(O)CCC2=Cc3c(cnn3-c3ccc(F)cc3)C[C@@]21C1CC1)c1ccccn1 (stereo partly drawn)        213
 5  CC[C@]12Cc3cnn(-c4ccc(F)cc4)c3C=C1CC[C@@]2(O)CC(O)c1ncccc1F (stereo partly drawn) [Example 77]        162
 6  NC(=O)[C@H](F)c1c(F)cccc1CC[C@]1(O)CCC2=Cc3c(cnn3-c3ccc(F)cc3)C[C@@]21C1CC1        106
 7  CC[C@]12Cc3cnn(-c4ccccc4)c3C=C1CC[C@@]2(O)CC(O)c1cc(C#N)ccn1 (stereo partly drawn)        235
 8  COc1cccc(CC[C@]2(O)CCC3=Cc4c(cnn4-c4ccc(F)cc4)C[C@@]32C2CC2)c1C(N)=O         11
 9  CC[C@]12Cc3cnn(-c4cccc(F)c4)c3C=C1CC[C@@]2(O)CCc1ccccc1C(N)=O         80
10  O=C(NCCO)c1ccccc1CC[C@]1(O)CCC2=Cc3c(cnn3-c3ccc(F)cc3)C[C@@]21C1CC1          9
11  CC(C)(CO)NC(=O)c1ccccc1CC[C@]1(O)CCC2=Cc3c(cnn3-c3ccc(F)cc3)C[C@@]21C1CC1          9
12  CC[C@]12Cc3cnn(-c4ccc(F)cc4)c3C=C1CC[C@@]2(O)CCc1cccc(F)c1CC(N)=O         24
13  Cc1ccnc(CC[C@]2(O)CCC3=Cc4c(cnn4-c4ccc(F)cc4)C[C@@]32C2CC2)c1        114
14  CC[C@]12Cc3cnn(-c4ccccc4)c3C=C1CC[C@@]2(O)CC(O)c1ccccn1 (single isomer, unassigned) [Example 82b]        277

###

- test.system: human GR (Homo sapiens)
- Construct: naturally expresses the human GR; endogenous in cells
- assay.text: Trans-activation modulation of glucocorticoid receptor (GRAMMER), MMTV-LUC reporter in A549 cells
- Assay type: cell-based
- run.parameters: A549 cells; IP = inflection point; read-out: Transactivation A549 Cells Grammer IP
- Procedure: Trans-Activation Modulation of Glucocorticoid Receptor (GRAMMER) […] The routine transient assay consists of plating 7,000-25,000 cells/well of a white, clear-bottom 96-well plate. […] The cells are trypsinized and counted to the right cell number in the proper amount of fresh media. […] Antagonist activity is calculated by determining the decrease in dexamethasone-induced activity in response to compound treatment relative to samples that were treated with dexamethasone alone. […]
readout.name: EC50 (nM)

>>> print(df.to_string())
                                    molecule  obs_value
 0  CC[C@]12Cc3cnn(-c4ccc(F)cc4)c3C=C1CC[C@@]2(O)CC(O)c1ncccc1F (stereo partly drawn) [Example 77]        115
 1  CC[C@]12Cc3cnn(-c4ccc(F)cc4)c3C=C1CC[C@@]2(O)CCc1ccccc1S(C)(=O)=O         16
 2  CC[C@]12Cc3cnn(-c4ccc(F)cc4)c3C=C1CC[C@@]2(O)CCc1nccc(OC)c1CC(N)=O        142
 3  CC[C@]12Cc3cnn(-c4ccc(F)cc4)c3C=C1CC[C@@]2(O)CCc1cc(C(F)(F)F)ccn1         91
 4  CC[C@]12Cc3cnn(-c4ccc(F)cc4)c3C=C1CC[C@@]2(O)CCc1ncc(F)cc1C(N)=O         77
 5  CC[C@]12Cc3cnn(-c4ccc(F)cc4)c3C=C1CC[C@@]2(O)CC(O)c1ccc(F)cn1 (single isomer, unassigned) [Example 69b]        113
 6  CC[C@]12Cc3cnn(-c4ccc(F)cc4)c3C=C1CC[C@@]2(O)CCc1ccccc1S(=O)(=O)C(C)C        101
 7  CC[C@]12Cc3cnn(-c4ccc(F)cc4)c3C=C1CC[C@@]2(O)CCc1ccc(F)cn1        156
 8  CC[C@]12Cc3cnn(-c4ccc(F)cc4)c3C=C1CC[C@@]2(O)CCc1ccccc1C(O)C(N)=O (stereo partly drawn) [Example 26]        161
 9  Cc1ccnc(CC[C@]2(O)CCC3=Cc4c(cnn4-c4ccc(F)cc4)C[C@@]32C2CC2)c1         59
10  CC[C@]12Cc3cnn(-c4cccnc4)c3C=C1CC[C@@]2(O)CCc1ccccc1C#N         47
11  CC[C@]12Cc3cnn(-c4ccc(F)cc4)c3C=C1CC[C@@]2(O)CCc1ccccn1         80
12  CC[C@]12Cc3cnn(-c4cccnc4)c3C=C1CC[C@@]2(O)CCc1cccc(F)c1C#N        116
13  NC(=O)c1cc(F)ccc1CC[C@]1(O)CCC2=Cc3c(cnn3-c3ccc(F)cc3)C[C@@]21C1CC1        116
14  CC[C@]12Cc3cnn(-c4ccc(F)cc4)c3C=C1CC[C@@]2(O)CC(O)c1ncccc1Cl (stereo partly drawn)         83
